Molecular target: T1, human IL-2Rγ (common cytokine receptor γ-chain) (human, UniProt P31785 23-262, limits assumed)
T1 construct: Recombinant protein coated on the plate or immobilised on a CM5 chip; also called hu IL-2R; CD132
T1 sequence: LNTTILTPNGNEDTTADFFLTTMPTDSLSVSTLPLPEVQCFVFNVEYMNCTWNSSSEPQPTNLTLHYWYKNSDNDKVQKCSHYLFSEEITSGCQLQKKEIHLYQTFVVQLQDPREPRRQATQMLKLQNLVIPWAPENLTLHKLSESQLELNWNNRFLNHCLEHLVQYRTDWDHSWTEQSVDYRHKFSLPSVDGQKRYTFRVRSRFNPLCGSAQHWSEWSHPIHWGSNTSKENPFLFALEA
Test: PE binding ELISA, periplasmic extract on coated protein
readoutName: OD (PE binding ELISA) (OD450 nm)
Kindly provide the numeric value in OD450 nm only, without the unit symbol.

Some binders with known OD (PE binding ELISA) results, for comparison:
Problem: For FJ1427_P035MP04A11 (VHH, VHH in periplasmic extract; also called clone nr) VHH: QVQLVESGGGLVQAGESLRLSCAASGPTASRVAVAWFRQVPGKEREFVAVVNRPGTMTKYADSVKGRFTISRDSAKNTVYLQMNSLKPEDTAVYYCAADSVPYGRPYYFQTSAGNYDYWGQGTQVTVSS , write its OD (PE binding ELISA).
Result: 0.593

Problem: For FJ1427_P035MP04B01 (VHH, VHH in periplasmic extract; also called clone nr; 290) VHH: EVQLVESGGGLVQAGASLRLSCAASGRTLSRYAMGWFRQAPGKEREFVAASSWGGDTYYADSVEGRFTFSRDNAKNAVYLQMNSLQPEDTAVYYCAGAPTSFATTAYSSSNSYAYWGQGTQVTVSS , write its OD (PE binding ELISA).
Result: 0.873

Problem: For FJ1427_P035MP04E02 (VHH, VHH in periplasmic extract; also called clone nr; 301) VHH: QVQLVESGGGWVQVGESLRLSCAPSGRTFVSGIMGWFRQTPGKEREFVARIILNNNSTRYTDSVKGRFTISRDSAKNTMYLQMNTLRPEDTAVYYCAARDRYGSGNSLSPSAYDYWGQGTQVTVSS , write its OD (PE binding ELISA).
Result: 1.98

We next turn to a different binder, shown below.
Problem: For FJ1427_P035MP04D10 (VHH, VHH in periplasmic extract; also called clone nr; 364) VHH: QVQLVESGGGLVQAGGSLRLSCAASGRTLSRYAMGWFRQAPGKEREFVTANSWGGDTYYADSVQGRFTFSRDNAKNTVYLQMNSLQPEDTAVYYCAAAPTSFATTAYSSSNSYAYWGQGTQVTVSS , write its OD (PE binding ELISA).
Result: 1.26

// provenance: patent US20240409645A1
